Source of measurements: paper PMC4921775

- targetDesc: T1, FCHO1 μHD K877E + R879A (for ITC) (human, UniProt O14526 609-889, K877E | R879A)
- T1 sequence (looked up): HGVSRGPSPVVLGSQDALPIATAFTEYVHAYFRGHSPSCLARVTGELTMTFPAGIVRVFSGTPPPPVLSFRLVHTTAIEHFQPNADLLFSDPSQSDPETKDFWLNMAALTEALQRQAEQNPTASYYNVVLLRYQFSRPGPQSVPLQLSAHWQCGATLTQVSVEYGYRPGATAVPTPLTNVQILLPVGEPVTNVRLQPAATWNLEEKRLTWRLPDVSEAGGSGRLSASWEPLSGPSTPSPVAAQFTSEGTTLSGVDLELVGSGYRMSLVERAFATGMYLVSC
- assayRemarks: ITC; repeated injection of EPS15 peptides into a temperature-controlled solution of μHD, Nano ITC instrument (TA Instruments); minimum of four runs
- conditionParameters: both partners purified
measurementLabel: Kd

INSERT INTO measurements (binder, measurementlabel, experimentalresult) VALUES
  ('NLDFFQSDPFVGSDPFKDDPFGK (peptide, UniProt P42566 616-638, looked up) [EPS15 616–638 peptide]', 'Kd', '> 300 µM');
